- Tested on: OVCAR-4 ovarian
- Measurement Description: NCI tumour cell line growth inhibition, 48 h
Readout Kind: TGI (µM)
Express it in µM; write the number only.

Query string: Which TGI is reported with OVCAR-4 ovarian for this entry: COc1cc2c(cc1OCCCN1CCN(CCCOc3cc4c(cc3OC)C(=O)N3CC(F)(F)C[C@H]3C=N4)CC1)N=C[C@@H]1CC(F)(F)CN1C2=O ?
Result string: 33.7

Query string: And for C=C1C(=O)[C@@]23CC[C@@H]4[C@@]5(C)CCC[C@@]4(OC5=O)[C@@]2(C)CC[C@@H]1C3 ?
Result string: 5.28

Query string: And for CCN(Cc1c(F)cccc1OC)c1ccc(CO)c(Cl)c1 ?
Result string: 13

Query string: And for Cc1cc(N(C)C)c2ccccc2[n+]1CCCCCCCCCC[n+]1c(C)cc(N(C)C)c2ccccc21 ?
Result string: 22.2

---

Task for the reader: assign each of the following compounds its reported TGI.
- System: MDA-N
- Measurement Description: NCI tumour cell line growth inhibition, 48 h

Query string: I would be grateful if you could share the reported TGI for CSc1nc2c(c(N(C)C)n1)C(O)n1c(nc3ccccc31)S2 (stereo unspecified) .
Result string: > 100 µM

Query string: And for CC1(C)C=CC(=O)C(O)C(C)(C)C1=O (stereo unspecified) ?
Result string: > 100 µM

Query string: And for O=c1c2c(no[n+]2[O-])c2ccccc2n1-c1ccccc1 ?
Result string: 9.56 µM

Query string: And for CCOC(=O)c1c2cccccc-2nc1Nc1cccc2c(C)ccnc12 ?
Result string: > 10 µM

Query string: And for Cc1cc(N(C)C)c2ccccc2[n+]1CCCCCCCCCC[n+]1c(C)cc(N(C)C)c2ccccc21 ?
Result string: 2.73 µM

Query string: And for Cn1c2ccccc2c2c(=S)c3ccccc3ccc21 ?
Result string: > 100 µM

---

- Test system: OVCAR-4 ovarian
- Measurement Description: NCI tumour cell line growth inhibition, 48 h
Where a SMILES comes first, the peptide text is derived from it. The star is where a group is joined. Palmitoyl = CCCCCCCCCCCCCCCC(=O)*
Readout Kind: GI50

Query string: Which GI50 is reported with OVCAR-4 ovarian for this entry: CC(C)=CCC1=C(O)c2ccccc2C(=O)C1=O ?
Result string: 11.7 µM

Query string: And for CCCCCCCCCCCCCCCC(=O)N1CCCC1C(=O)NCC(=O)NC(Cc1ccccc1)C(=O)N1CCCC1C(=O)NC(CO)C(=O)NC(Cc1ccc(O)cc1)C(=O)NC(CCCCN)C(=O)NC(CC(C)C)C(=O)NC(CCCN=C(N)N)C(=O)N1CCCC1C(=O)NCC(N)=O (stereo unspecified) (Palmitoyl-PGFPSYKLRPG-NH2; configuration not given here) ?
Result string: 30.1 µM

Query string: And for Nc1c(C(=O)Nc2ccccn2)sc2nc3c(cc12)C(=O)CCC3 ?
Result string: 6.26 µM

Query string: And for CCCCNCCCNCCCNC(=O)c1csc(-c2csc(CCNC(=O)C(NC(=O)C(C)C(O)C(C)NC(=O)C(NC(=O)c3nc(C(CC(N)=O)NCC(N)C(N)=O)nc(N)c3C)C(OC3OC(CO)C(O)C(O)C3OC3OC(CO)C(O)C(OC(N)=O)C3O)c3cnc[nH]3)C(C)O)n2)n1 (stereo unspecified) ?
Result string: 0.459 µM

Query string: And for C=C(CN(C)Cc1ccccc1)c1ccc(NC(=O)c2ccc(C(=C)CN(C)Cc3ccccc3)cc2)cc1 ?
Result string: 17.6 µM

Query string: And for COc1ccc(-c2cc(=O)oc3c4c(ccc23)OCN(Cc2ccc(F)cc2)C4)cc1 ?
Result string: 17.4 µM

---

- Test system: CAKI-1 renal
- Measurement Description: NCI tumour cell line growth inhibition, 48 h
Task for the reader: assign each of the following compounds its reported TGI.

Query string: Which TGI is reported with CAKI-1 renal for this entry: CC[C@@H]1NC(C(=O)OC)Cc2c1[nH]c1ccccc21 (some centres undefined) ?
Result string: > 100 µM

Query string: And for Cc1cc(OP2(=O)NCc3ncccc3O2)ccc1Cl (centres undefined) ?
Result string: > 100 µM

Query string: And for Nc1ncc2c(n1)-c1ccccc1OC2N1CCCC1 (centres undefined) ?
Result string: > 100 µM

Query string: And for Cc1cc(N(C)C)c2ccccc2[n+]1CCCCCCCCCC[n+]1c(C)cc(N(C)C)c2ccccc21 ?
Result string: 20 µM

Query string: And for O=C(c1ccc([N+](=O)[O-])cc1[N+](=O)[O-])N(/N=C/C=C/c1ccccc1)c1nnc(-c2ccccc2)c(-c2ccccc2)n1 ?
Result string: 79.6 µM

Query string: And for C=C(C)[C@H]1C2=CC(C(=O)OC)=C(C[C@H](C(=C)C)[C@@H](O)[C@@H](O)C3=C[C@H]1OC3=O)O2 ?
Result string: > 100 µM

Query string: And for Cc1cc2c(cc1C)[n+](=O)cc(C(=O)C/C(=N/NC(=S)NN)C(=O)Nc1cccc(C(F)(F)F)c1)n2[O-] ?
Result string: > 100 µM

Query string: And for O=C(CCSC1=NCCCN1)c1ccc(F)cc1 ?
Result string: 46.9 µM

Query string: And for Cc1ccc(/C=C2/N=C(N/N=C\C(O)C(O)C(O)C(O)CO)NC2=O)cc1 (centres undefined) ?
Result string: > 100 µM

---

- System: HOP-18 NSCLC
- Measurement Description: NCI tumour cell line growth inhibition, 48 h
Task for the reader: assign each of the following molecules its reported TGI.
Express it in µM; write the number only.

Query string: I would be grateful if you could share the reported TGI for O=C1C/C(Br)=C\c2ccccc2-c2ccccc21 .
Result string: 16.8

Query string: And for NC(=S)N/N=C/c1ncccc1O ?
Result string: 141

Query string: And for CCOC(=O)C(Br)=C1OC(=O)c2ccccc2-c2ccccc21 (mixture of isomers) ?
Result string: 51.4

Query string: And for CCOC(=O)/C=C1/C(CCCOCc2ccccc2)C2CCCC23CC2(CCN13)OCCO2 (stereo not given) ?
Result string: 50

---

- Tested on: HCT-15 colon
- Measurement Description: NCI tumour cell line growth inhibition, 48 h; in the data active = GI50 below about 0.43 µM; inactive = the rest
I would appreciate it if you answered using one of these outcomes: active, inactive

Query string: Entry NNc1ncnc2nc[nH]c12 : call = ?
Result string: inactive

Query string: And for O=c1[nH]c(O)c(C=Nc2ccc(-c3nc4ccccc4o3)cc2)c(=O)[nH]1 ?
Result string: inactive

Query string: And for NCCCn1c2c(c3ccc([N+](=O)[O-])cc3c1=O)C(=O)c1cc(I)ccc1-2 ?
Result string: active

Query string: And for CN(C)CCN1CCC(Cc2ccccc2)CC1 ?
Result string: inactive

Query string: And for O=C(Nc1nc(-c2c[nH]c3ccccc23)cs1)c1n[nH]c(=O)c2ccccc12 ?
Result string: active

Query string: And for CNCCCNc1ccnc2cc(Cl)ccc12 ?
Result string: inactive

---

- Tested on: SK-MEL-28 melanoma
- Measurement Description: NCI tumour cell line growth inhibition, 48 h
Task for the reader: assign each of the following compounds its reported log10(TGI).
On a log10 scale: recorded TGI, unit µM.

Query string: I would be grateful if you could share the reported log10(TGI) for O=C(O)c1cccc(S(=O)(=O)NN2C(=O)CSC2c2ccc(Cl)cc2Cl)c1 (stereo not given) .
Result string: 1.88

Query string: And for Cc1cc(C(=O)CSC(=S)SC(C)(C)C)ccc1Cl ?
Result string: 1.55

Query string: And for N#CC(I)CS(=O)(=O)c1ccccc1 (stereo not given) ?
Result string: 1.49

Query string: And for COc1cc(C2c3cc4c(cc3[C@@H](Nc3ccccc3)C3COC(=O)[C@H]23)OCO4)cc(OC)c1O (stereo not given in full) ?
Result string: 1.36

Query string: And for O=C1/C(=C/c2ccc(Cl)cc2)CCCc2ccccc21 ?
Result string: 1.49

Query string: And for C[C@H](CCOc1cccc(CC(=O)O)c1)N(Cc1cccc(C(F)(F)F)c1Cl)CC(c1ccccc1)c1ccccc1 ?
Result string: 1.30

Query string: And for Cc1cccc(NC2=C(Cl)C(=O)c3nc(C)ccc3C2=O)c1 ?
Result string: 0.50

Query string: And for COc1cc2c(cc1OCCCN1CCN(CCCOc3cc4c(cc3OC)C(=O)N3CC(F)(F)C[C@H]3C=N4)CC1)N=C[C@@H]1CC(F)(F)CN1C2=O ?
Result string: 1.18

---

- System: SF-539 CNS
- Measurement Description: NCI tumour cell line growth inhibition, 48 h
Task for the reader: assign each of the following molecules its reported GI50.

Query string: I would be grateful if you could share the reported GI50 for CCOC(=O)c1c(C)c2c(n1Cc1ccccc1)CSCC2=O .
Result string: 17.5 µM

Query string: And for COc1ccc(Cl)cc1NC(=O)c1ccc(NC2=C(Cl)C(=O)N(Cc3ccccc3)C2=O)cc1 ?
Result string: > 100 µM

Query string: And for CCSc1nc(N=Cc2ccccc2O)c2cn[nH]c2n1 ?
Result string: 34.2 µM

Query string: And for Nc1c(C(=O)Nc2ccccn2)sc2nc3c(cc12)C(=O)CCC3 ?
Result string: 1.17 µM
